Values compiled from patent US20220226299A1.

testedTarget: human Cav3.2 channels (Homo sapiens, UniProt O95180)
Construct: human Cav3.2 channel ORF (Open Reading Frame) gene
Sequence (O95180 whole entry): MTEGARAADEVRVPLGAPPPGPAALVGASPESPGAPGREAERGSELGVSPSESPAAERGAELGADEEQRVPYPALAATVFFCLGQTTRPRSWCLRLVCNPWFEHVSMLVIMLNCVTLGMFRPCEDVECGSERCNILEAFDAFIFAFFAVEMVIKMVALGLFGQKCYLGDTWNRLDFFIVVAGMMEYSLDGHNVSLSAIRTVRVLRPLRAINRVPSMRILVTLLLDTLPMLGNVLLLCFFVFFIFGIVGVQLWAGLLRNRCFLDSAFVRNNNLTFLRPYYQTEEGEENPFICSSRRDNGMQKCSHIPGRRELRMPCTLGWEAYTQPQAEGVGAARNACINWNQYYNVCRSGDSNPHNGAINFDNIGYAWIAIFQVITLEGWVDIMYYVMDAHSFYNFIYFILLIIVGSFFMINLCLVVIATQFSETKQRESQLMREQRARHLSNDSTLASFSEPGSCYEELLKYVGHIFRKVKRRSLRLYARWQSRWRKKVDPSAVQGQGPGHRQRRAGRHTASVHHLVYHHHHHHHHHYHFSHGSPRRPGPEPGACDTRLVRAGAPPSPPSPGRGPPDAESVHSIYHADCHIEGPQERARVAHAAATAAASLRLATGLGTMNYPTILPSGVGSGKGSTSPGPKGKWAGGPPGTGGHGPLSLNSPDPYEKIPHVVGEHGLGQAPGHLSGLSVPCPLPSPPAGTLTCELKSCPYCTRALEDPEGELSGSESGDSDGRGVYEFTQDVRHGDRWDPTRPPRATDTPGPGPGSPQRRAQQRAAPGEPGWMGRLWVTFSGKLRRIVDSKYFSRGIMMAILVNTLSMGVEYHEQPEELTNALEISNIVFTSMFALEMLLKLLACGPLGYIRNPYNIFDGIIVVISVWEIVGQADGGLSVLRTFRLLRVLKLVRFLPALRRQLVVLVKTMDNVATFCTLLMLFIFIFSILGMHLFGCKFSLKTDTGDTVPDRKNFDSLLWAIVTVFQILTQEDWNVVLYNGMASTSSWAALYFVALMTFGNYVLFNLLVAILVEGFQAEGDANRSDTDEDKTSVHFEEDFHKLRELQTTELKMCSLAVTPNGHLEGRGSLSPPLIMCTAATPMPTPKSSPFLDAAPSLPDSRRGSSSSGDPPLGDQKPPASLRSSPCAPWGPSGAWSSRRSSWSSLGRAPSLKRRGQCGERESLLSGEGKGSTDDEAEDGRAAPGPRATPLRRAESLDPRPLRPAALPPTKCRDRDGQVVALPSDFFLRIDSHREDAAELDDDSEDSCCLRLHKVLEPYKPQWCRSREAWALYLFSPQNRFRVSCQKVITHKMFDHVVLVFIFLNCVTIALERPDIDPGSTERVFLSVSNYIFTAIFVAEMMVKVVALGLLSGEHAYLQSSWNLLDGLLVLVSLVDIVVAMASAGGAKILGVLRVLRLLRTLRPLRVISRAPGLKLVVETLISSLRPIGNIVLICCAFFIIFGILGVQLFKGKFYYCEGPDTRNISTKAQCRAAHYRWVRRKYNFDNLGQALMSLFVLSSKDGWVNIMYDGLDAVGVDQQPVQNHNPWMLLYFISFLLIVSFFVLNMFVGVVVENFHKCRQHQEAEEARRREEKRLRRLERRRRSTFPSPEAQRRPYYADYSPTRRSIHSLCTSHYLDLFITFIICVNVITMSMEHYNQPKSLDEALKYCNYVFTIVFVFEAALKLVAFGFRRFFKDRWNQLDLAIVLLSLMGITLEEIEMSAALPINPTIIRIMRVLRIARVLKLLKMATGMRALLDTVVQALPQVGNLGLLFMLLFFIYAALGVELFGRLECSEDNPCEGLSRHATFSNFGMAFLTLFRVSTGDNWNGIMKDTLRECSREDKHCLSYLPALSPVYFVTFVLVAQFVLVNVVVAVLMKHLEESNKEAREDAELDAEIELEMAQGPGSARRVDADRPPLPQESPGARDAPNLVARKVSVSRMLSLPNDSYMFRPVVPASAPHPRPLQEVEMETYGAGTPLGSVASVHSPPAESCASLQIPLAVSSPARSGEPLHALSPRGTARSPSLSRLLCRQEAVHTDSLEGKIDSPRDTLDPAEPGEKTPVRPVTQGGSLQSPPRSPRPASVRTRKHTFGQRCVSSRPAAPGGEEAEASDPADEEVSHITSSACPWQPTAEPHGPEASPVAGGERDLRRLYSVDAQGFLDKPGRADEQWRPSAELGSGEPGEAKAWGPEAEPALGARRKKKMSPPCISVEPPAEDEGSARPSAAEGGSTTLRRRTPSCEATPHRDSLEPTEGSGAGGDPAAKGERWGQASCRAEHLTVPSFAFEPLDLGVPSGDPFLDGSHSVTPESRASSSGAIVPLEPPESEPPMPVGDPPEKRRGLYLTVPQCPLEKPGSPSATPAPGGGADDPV
experiment: T-type calcium blocking action: intracellular calcium (Fluo-4 AM fluorescence) in HEK293 cells steadily expressing human Cav3.2 channels
details: HEK293 cells expressing human Cav3.2; KCl-stimulated calcium influx, Fluo-4 fluorescence; Tables 1 to 3
Experimental: T-Type Calcium Blocking Action (1) Construction of Cells Steadily Expressing Human Cav3.2 Channels […] The cells steadily expressing human Cav3.2 channels produced by testing method (1) were seeded on a 96-well plate (Dulbecco's modified Eagle medium (DMEM) medium containing 10% fetal bovine serum (FBS) was used as a medium). […] Then, the cells were further allowed to stand at room temperature under light-shielded conditions for 15 minutes and placed in a microplate reader EnVision (PerkinElmer). […]
pIC50: −log10 of the molar value. Where a name gives a salt, the structure may show the parent alone.
quantity: pIC50

Here are 6 compounds together with their reported answers.
O=C(Cc1ccc(C2CC2)cc1)N[C@@H]1CCN(c2cc(F)cc(C(F)(F)F)c2)C1    5.82
O=C(Cc1ccc(N2CCOCC2)cc1)N[C@@H]1CCN(c2nc(C(F)(F)F)cs2)C1    6.52
O=C(Cc1ccc(C(F)(F)F)cc1)N[C@@H]1CCN(c2ccc(F)c(C(F)(F)F)c2)C1    5.52
CC(C)c1ccc(CC(=O)N[C@@H]2CCN(c3nc(C(F)(F)F)cs3)C2)cc1    6.96
O=C(Cc1ccc(N2CCS(=O)(=O)CC2)cc1)N[C@@H]1CCN(c2cncc(C(F)(F)F)c2)C1    6.82
Cc1ncc(N2CC[C@@H](NC(=O)Cc3ccc(C4CC4)cc3)C2)cc1C(F)(F)F    7.05

a. C[C@@]1(NC(=O)Cc2ccc(N3CCOCC3)cc2)CCN(c2cncc(C(F)(F)F)c2)C1
b. O=C(Cc1ccc(OCC(F)(F)F)cc1)N[C@@H]1CCN(c2cncc(C(F)(F)F)c2)C1
c. O=C(Cc1ccc(N2C[C@@H]3CC[C@H]2CO3)cc1)N[C@@H]1CCN(c2ccc(C(F)(F)F)nc2)C1
d. COCCN(C)c1ccc(CC(=O)N[C@@H]2CCN(c3cncc(C(F)(F)F)c3)C2)cc1
e. O=C(Cc1ccc(C2CC2)cc1)NC1(C(=O)O)CCN(c2cncc(C(F)(F)F)c2)C1 (stereo not drawn)
// query Put these in order: smallest pIC50 first, largest last. Please express your ranking as an ordered list of the labels.
// result e, c, a, b, d

a. O=C(Cc1ccc(C2CC2)cc1)N[C@@H]1CCN(c2cccc(C(F)(F)F)n2)C1
b. O=C(Cc1ccc2cccnc2c1)N[C@@H]1CCN(c2cncc(C(F)(F)F)c2)C1 [Example 79, hydrochloride]
c. O=C(N[C@@H]1CCN(c2cncc(C(F)(F)F)c2)C1)C1CC1c1ccc(C2CC2)cc1 (single isomer, unassigned) [Example 106B]
d. O=C(Cc1ccc2[nH]nnc2c1)N[C@@H]1CCN(c2cncc(C(F)(F)F)c2)C1
// query Put these in order: smallest pIC50 first, largest last. Please express your ranking as an ordered list of the labels.
// result d, c, a, b
(d: 5.85, c: 6.40, a: 6.62, b: 6.82)
